// returns No unless melting point is strictly below 100 °C, in which case Yes

{"Molecule": "Brc1cc(Br)c(Br)c(Br)c1Br", "Assigned Label": "No"}
{"Molecule": "ICc1ccccc1", "Assigned Label": "Yes"}
{"Molecule": "O=c1ccn(C2OC(CO)C(O)C2O)c(=O)[nH]1 (centres undefined)", "Assigned Label": "No"}
{"Molecule": "O=[N+]([O-])c1ccc(F)c2nonc12", "Assigned Label": "Yes"}
{"Molecule": "COC(=O)c1cnc(S)n1C", "Assigned Label": "No"}
{"Molecule": "CC(CC(=O)O)CC(C)(C)C (centres undefined)", "Assigned Label": "Yes"}

Q: I wonder whether CC(=O)Nc1ccc2c(c1)CCC2=O has melting point below 100 °C. Can you tell?
A: No

Q: I wonder whether c1ccc2nsnc2c1 has melting point below 100 °C. Can you tell?
A: Yes

====

A collection of compounds and their measured melting point

Solved cases below.
{"Compound": "Cc1ccc(N=Nc2ccc(N(C)C)cc2)cc1", "Reported Result": "165 to 167 °C"}
{"Compound": "O=C(CBr)Nc1ccccc1C(=O)c1ccccc1", "Reported Result": "94 to 95 °C"}

Moving on to the next compound.
Please fill in: melting point reported for CN1CC(Br)C(=O)NC1=O (stereo not drawn) = 153 to 155 °C

====

A collection of molecules and their measured melting point

Solved cases below.
{"Molecule": "N#Cc1ccc(N2CCCC2)cn1", "melting point": "106 to 108 °C"}
{"Molecule": "CCOC(=O)c1ccc(NC)c(N)c1", "melting point": "87 to 88 °C"}
{"Molecule": "O=C(Cl)c1ccc2sccc2c1", "melting point": "86 to 87 °C"}

Please fill in: melting point reported for Cc1cccc(C)c1NC(=O)C(C)Br (centres undefined) = 163 to 165 °C

====

A collection of molecules and their measured melting point

Solved cases below.
{"Molecule": "Nc1n[nH]c(-c2ccccc2)c1Br", "melting point": "118 to 120 °C"}
{"Molecule": "Cc1ccccc1C1Cc2ccccc2C(O)O1 (centres undefined)", "melting point": "100 to 109 °C"}
{"Molecule": "NNc1ncnc2c1cnn2-c1ccccc1", "melting point": "190 to 191 °C"}
{"Molecule": "CC1(C)OC2C(CO)OC(n3cnc4c(N)ncnc43)C2O1 (centres undefined)", "melting point": "221 to 222 °C"}
{"Molecule": "COC(=O)c1cscc1N", "melting point": "35 to 38 °C"}

Please fill in: melting point reported for CCCOC(=O)C(C)c1ccc(-c2ccccc2)c(F)c1 (centres undefined) = > 20 °C

Please fill in: melting point reported for O=C(Cl)c1csc(-c2ccc(C(F)(F)F)cc2)n1 = 96 to 98 °C

Please fill in: melting point reported for CN1C(=O)c2ccc([N+](=O)[O-])cc2C1=O = 178 to 179 °C

Please fill in: melting point reported for CSc1nc(N)c2ccccc2n1 = 233 to 235 °C

====

A collection of molecules and their measured melting point

{"Molecule": "CC(O)c1ccccc1C(F)(F)F (stereo unspecified)", "melting point": "38 to 40 °C"}
{"Molecule": "O=C(Nc1cccnc1Cl)c1ccc(Cl)cc1", "melting point": "146 to 148 °C"}
{"Molecule": "O=C(O)c1cccc2c1CCCC2", "melting point": "147 to 150 °C"}
{"Molecule": "COC(=O)c1scc(S(=O)(=O)Cc2ccco2)c1N", "melting point": "152 to 154 °C"}
{"Molecule": "Nc1cccc2nonc12", "melting point": "109 to 111 °C"}

Please fill in: melting point reported for CCOC(=O)c1cn2ccccc2n1 = 80 to 83 °C

Please fill in: melting point reported for O=C(O)CCc1ccc(CCC(=O)O)cc1 = 229 to 233 °C

Please fill in: melting point reported for CCOC(=O)c1cnc2c(c(C)nn2C)c1Oc1ccc(F)cc1 = 110 to 112 °C

Please fill in: melting point reported for c1ccc(-c2cccs2)cc1 = 34 to 36 °C

Please fill in: melting point reported for FC(F)(F)c1cc(Cl)c2cc(Cl)ccc2n1 = 104 to 107 °C

Please fill in: melting point reported for c1ccc2c(c1)c1cccc3ccc4cccc2c4c31 = 180 to 182 °C

====

A collection of compounds and their measured melting point

{"Smiles Code": "N[C@@H](CCl)C(=O)O", "Quantity Name": "melting point", "Reported Result": "156 to 157 °C"}
{"Smiles Code": "Nc1cc(C(F)(F)F)cc(Cl)c1N", "Quantity Name": "melting point", "Reported Result": "42 to 43 °C"}

Moving on to the next compound.
Please fill in: melting point reported for Cc1ccc(S(=O)(=O)c2ncsc2SCC(N)=O)cc1 = 204 to 206 °C

====

A collection of compounds and their measured melting point

{"Compound": "CCOC(=O)c1c(-c2ccc(Cl)cc2)csc1N", "Reported Result": "111 to 112 °C"}
{"Compound": "N#CC1=C(N)n2nc(C(F)(F)F)nc2NC1c1ccc(Cl)cc1Cl (stereo unspecified)", "Reported Result": "305 to 307 °C"}

Please fill in: melting point reported for CCOC(=O)c1c(C)[nH]c2ccc(O)cc12 = 206 to 210 °C

Please fill in: melting point reported for COc1ccc(Oc2ccc(C(F)(F)F)cc2N)cc1 = 73 to 75 °C

Please fill in: melting point reported for O=C(O)Cc1ccc(O)c(F)c1 = 132 to 134 °C

Please fill in: melting point reported for CCCCCCCCCCOc1ccc(C(C)=O)cc1 = 35 to 37 °C

Please fill in: melting point reported for COc1cc(C(=O)O)cc(Cl)n1 = 214 to 216 °C

Please fill in: melting point reported for CC(C)n1cc(C(N)=S)c(=O)n(Cc2ccccc2)c1=O = 173 to 175 °C

Please fill in: melting point reported for Nc1nnc(S)s1 = 243 to 244 °C

Please fill in: melting point reported for CCCCCCCCCCC#CC#CCCCCCCC(=O)O = 51 to 52 °C

Please fill in: melting point reported for CCOC(=O)C(=CNc1cc(C)nn1C)C(=O)OCC = 85 to 88 °C

====

A collection of compounds and their measured melting point
Entry rule: numbers only, all in °C.

{"Smiles Code": "Fc1cccc(CBr)c1C(F)(F)F", "Unit Label": "°C", "melting point": 42}

Moving on to the next compound.
Please fill in: melting point reported for Cc1cccc(O)c1C(=O)O = 173

====

Quantity Name: melting point

Solved cases below.
{"Molecule": "COC(=O)CCC(C)C1CCC2C3C(=O)CC4CC(=O)CCC4(C)C3CC(=O)C12C (stereo not given)", "melting point": "242 to 243 °C"}
{"Molecule": "COc1ccccc1NC(=O)c1cnc(C(C)(C)C)c(Cl)n1", "melting point": "118 to 119 °C"}
{"Molecule": "Cc1nn(-c2ccccc2)c(Cl)c1C=O", "melting point": "144 to 148 °C"}

Please fill in: melting point reported for O=C1Nc2ccccc2CCc2ccccc21 = 246 to 248 °C

Please fill in: melting point reported for O=C(O)C=Cc1ccc(Oc2ccccc2)nc1 = 204 to 206 °C

Please fill in: melting point reported for BrCc1ccc(-c2csnn2)cc1 = 135 to 137 °C

Please fill in: melting point reported for COC(=O)CC1C(=O)NC(C)=C1C(=O)OC (stereo not given) = 93 to 94 °C

Please fill in: melting point reported for CC(C)[C@@H](N)CO = 32 to 36 °C

Please fill in: melting point reported for O=Cc1ccc(-n2cccc2)cc1 = 94 to 95 °C

Please fill in: melting point reported for Cc1ccc(C2C(C#N)=C(N)N3C(=C2C#N)Sc2ccccc23)cc1 (stereo not given) = 200 to 202 °C

====

A collection of compounds and their measured melting point
Entry rule: numbers only, all in °C.

{"Smiles Code": "CCOC(=O)CCCOc1ccc(Cl)cc1C", "Reported Result": -1}

Please fill in: melting point reported for ON(C=C(Br)c1ccccc1)c1ccccc1 = 180

Please fill in: melting point reported for S=C1NC(=S)C(c2ccccc2)(c2ccccc2)N1 = 263

====

Quantity Name: melting point

Solved cases below.
{"Molecule": "Cc1cncc(Oc2ccc(Br)cc2)n1", "melting point": "58.5 to 60 °C"}
{"Molecule": "Cc1nn(-c2ccccc2)c(C)c1C(=O)O", "melting point": "199 to 201 °C"}
{"Molecule": "O=C(c1ccccc1)c1ccc2c(c1)OCCCO2", "melting point": "72 to 75 °C"}
{"Molecule": "Cc1ccccc1NC(=S)/C(=N\\NC(=N)N)c1ccccc1", "melting point": "206 to 207 °C"}
{"Molecule": "O=C(C=Cc1ccc(O)c(O)c1)OC1CC(O)(C(=O)O)CC(O)C1O (configuration not stated)", "melting point": "205 to 209 °C"}
{"Molecule": "Cc1cc(CO)n[nH]1", "melting point": "78 to 80 °C"}

Please fill in: melting point reported for N=C1C=C(NC(=O)c2ccccc2)/C(=N/C(=O)c2ccccc2)C=C1NC(=O)c1ccccc1 = > 330 °C

Please fill in: melting point reported for COc1ccc(-n2c(SC)nc3nc(SC)n(C)c3c2=O)cc1 = 213 to 214 °C

Please fill in: melting point reported for CC(C)CCCC(C)C1CCC2(C)C1(C)CCC13OC21CCC1C(C)C(O)CCC13C (configuration not stated) = 161 to 163 °C

Please fill in: melting point reported for Nc1cc(S(=O)(=O)F)ccc1Cl = 64 to 68 °C

Please fill in: melting point reported for Nc1cccnc1[N+](=O)[O-] = 194 to 196 °C

Please fill in: melting point reported for O=S(=O)(Cl)c1sccc1C1OCCO1 = 93 to 94 °C
